biological target: DNMT1 full-length (Homo sapiens, UniProt P26358 SEQ:1-1616); assay: inhibition; competitive vs hemimethylated DNA; settings: tags: baculovirus Sf9
Sequence (P26358 whole entry): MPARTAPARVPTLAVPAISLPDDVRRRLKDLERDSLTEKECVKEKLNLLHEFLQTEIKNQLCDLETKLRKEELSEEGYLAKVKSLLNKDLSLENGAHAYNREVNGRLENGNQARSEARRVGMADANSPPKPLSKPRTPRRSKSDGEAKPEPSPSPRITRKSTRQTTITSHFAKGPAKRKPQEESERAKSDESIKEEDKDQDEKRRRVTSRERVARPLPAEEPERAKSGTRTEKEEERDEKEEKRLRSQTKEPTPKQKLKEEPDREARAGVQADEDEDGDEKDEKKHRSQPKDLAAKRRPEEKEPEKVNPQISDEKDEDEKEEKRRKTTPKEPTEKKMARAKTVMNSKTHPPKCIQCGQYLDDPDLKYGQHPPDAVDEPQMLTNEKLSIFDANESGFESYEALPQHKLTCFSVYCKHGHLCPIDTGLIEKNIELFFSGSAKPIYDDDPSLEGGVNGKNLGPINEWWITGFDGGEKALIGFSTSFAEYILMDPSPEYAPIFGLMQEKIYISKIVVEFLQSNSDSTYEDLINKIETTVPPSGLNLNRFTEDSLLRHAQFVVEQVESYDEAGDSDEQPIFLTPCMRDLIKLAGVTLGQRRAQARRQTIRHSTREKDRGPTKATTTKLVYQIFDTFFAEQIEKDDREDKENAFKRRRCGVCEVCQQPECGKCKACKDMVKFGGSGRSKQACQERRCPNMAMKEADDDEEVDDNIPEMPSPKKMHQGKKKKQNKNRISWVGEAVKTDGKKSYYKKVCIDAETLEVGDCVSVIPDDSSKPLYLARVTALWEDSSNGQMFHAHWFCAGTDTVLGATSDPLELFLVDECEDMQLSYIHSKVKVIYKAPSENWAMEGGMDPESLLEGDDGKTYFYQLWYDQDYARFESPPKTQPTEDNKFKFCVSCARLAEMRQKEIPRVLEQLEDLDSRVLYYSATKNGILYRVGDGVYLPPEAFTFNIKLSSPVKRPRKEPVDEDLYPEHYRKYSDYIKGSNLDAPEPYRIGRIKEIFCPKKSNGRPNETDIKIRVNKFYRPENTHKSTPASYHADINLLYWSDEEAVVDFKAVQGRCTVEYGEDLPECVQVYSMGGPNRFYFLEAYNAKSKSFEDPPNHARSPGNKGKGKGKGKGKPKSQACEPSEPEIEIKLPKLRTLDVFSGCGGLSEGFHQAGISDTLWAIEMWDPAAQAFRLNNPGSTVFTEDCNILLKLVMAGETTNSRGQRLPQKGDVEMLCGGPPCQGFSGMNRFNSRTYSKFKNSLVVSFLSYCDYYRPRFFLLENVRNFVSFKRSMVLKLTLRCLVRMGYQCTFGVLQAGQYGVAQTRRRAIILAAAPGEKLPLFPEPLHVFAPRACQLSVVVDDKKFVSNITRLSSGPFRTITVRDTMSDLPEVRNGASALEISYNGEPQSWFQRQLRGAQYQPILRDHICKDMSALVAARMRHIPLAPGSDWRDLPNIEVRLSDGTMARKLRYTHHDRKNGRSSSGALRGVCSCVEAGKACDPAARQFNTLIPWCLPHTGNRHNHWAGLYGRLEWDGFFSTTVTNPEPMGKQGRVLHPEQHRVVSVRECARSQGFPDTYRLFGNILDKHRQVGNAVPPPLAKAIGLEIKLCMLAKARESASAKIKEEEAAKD
recorded.metric: pKi
One number for each entry, as −log10 of the molar value.

Param item = UCGUGAUAGGGGU (ssRNA) [5p-5] ; retrieve measured pKi.
6.90
